target-system: human topoisomerase II α (Homo sapiens, UniProt P11388)
Construct: purchased Professor Neil Osheroff (Vanderbilt University, Nashville, Tenn., USA)
Sequence (P11388 whole entry): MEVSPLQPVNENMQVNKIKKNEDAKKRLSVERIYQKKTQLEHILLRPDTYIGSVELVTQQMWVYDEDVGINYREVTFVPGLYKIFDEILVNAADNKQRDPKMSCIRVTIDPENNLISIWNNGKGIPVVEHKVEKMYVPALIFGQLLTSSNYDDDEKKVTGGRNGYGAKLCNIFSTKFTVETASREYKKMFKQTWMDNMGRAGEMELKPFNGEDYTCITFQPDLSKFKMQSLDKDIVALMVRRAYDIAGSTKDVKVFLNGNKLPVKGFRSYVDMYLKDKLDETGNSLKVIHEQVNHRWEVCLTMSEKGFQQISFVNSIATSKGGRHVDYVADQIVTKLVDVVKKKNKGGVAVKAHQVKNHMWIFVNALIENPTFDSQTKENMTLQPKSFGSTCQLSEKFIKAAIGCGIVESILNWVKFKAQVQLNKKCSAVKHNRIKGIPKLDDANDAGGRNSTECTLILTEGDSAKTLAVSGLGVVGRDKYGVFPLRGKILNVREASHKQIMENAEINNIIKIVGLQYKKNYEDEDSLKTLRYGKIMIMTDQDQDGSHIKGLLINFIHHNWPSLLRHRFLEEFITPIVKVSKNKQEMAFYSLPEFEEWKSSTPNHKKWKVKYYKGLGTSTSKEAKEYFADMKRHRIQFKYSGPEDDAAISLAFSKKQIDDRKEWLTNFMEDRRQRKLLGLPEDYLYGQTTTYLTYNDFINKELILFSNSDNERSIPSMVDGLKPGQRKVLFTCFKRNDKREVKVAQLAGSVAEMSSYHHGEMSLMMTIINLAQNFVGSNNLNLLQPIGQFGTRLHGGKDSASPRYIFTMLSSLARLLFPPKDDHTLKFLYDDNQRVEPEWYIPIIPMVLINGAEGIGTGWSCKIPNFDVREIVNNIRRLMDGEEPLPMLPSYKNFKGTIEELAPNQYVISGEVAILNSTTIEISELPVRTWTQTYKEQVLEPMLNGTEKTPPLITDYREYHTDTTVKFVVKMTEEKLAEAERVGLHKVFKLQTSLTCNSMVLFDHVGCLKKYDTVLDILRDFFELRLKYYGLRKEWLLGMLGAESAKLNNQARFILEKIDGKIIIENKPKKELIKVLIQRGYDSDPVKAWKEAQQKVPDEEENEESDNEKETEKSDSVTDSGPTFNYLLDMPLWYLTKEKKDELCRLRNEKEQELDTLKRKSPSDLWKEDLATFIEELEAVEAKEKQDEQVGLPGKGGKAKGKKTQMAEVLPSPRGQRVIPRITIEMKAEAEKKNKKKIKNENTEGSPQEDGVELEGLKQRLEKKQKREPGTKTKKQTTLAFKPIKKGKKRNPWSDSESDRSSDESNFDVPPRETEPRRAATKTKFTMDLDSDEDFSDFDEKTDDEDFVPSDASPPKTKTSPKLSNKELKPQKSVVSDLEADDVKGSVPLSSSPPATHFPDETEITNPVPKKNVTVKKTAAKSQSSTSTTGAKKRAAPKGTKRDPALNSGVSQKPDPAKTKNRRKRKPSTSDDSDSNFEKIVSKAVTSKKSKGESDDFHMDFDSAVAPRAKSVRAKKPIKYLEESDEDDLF
test-details: Topoisomerase II ATPase assay (Malachite Green)
Type: biochemical
experimental-setup: Percent inhibition @10 μM, Malachite Green assay; read-out: TOPO II inh. (inhibition of the TOPO ATPase activity)
Reported inhibition at 10 µM values follow for various molecules

Observe how each entry below is paired with its result.
CCc1nc2c(NC(C)CC(N)=O)nc(Nc3ccc4ncsc4c3)nc2[nH]1 (centres unmarked)	0%
CCc1nc2c(NC(C)(C)C)nc(Nc3ccc4nc(SC)sc4c3)nc2[nH]1	≥ 80%
COc1ccc2cc(Nc3nc(NC(C)(C)C)c4nc[nH]c4n3)ccc2c1	≥ 80%
CCc1nc2c(NC(C)(C)C)nc(Nc3ccc4ncsc4c3)nc2[nH]1	≥ 80%

Task: // lookup inhibition at 10 µM | system=human topoisomerase II α (Homo sapiens, UniProt P11388) | key= `CC(C)(C)Nc1nc(Nc2ccc3ncsc3c2)nc2[nH]cnc12`
Output: 50 to 65%

Task: Same lookup for `c1cnc2ccc(Nc3nc(N4CCN(c5cnccn5)CC4)c4nc[nH]c4n3)cc2c1` , please.
Output: < 50%

Task: For `Cc1nc2ccc(Nc3nc(NC(C)(C)C)c4nc[nH]c4n3)cc2s1` then?
Output: 50 to 65%

Task: Same question for `c1ccc(N2CCN(c3nc(Nc4ccc5ncsc5c4)nc4[nH]cnc34)CC2)nc1` please.
Output: < 50%

Data provenance: patent US20070249639A1
